MEASUREMENT DESCRIPTION: chemical genetic growth profiling, strain panel (AID 1159580);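 also: tested at 20 µM; growth read once vehicle control cultures reached saturation at 30 °C; 1 = growth at the plate median or of vehicle wells; lower values mean less growth of the strain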
MEASUREMENT SETUP: S. cerevisiae deletion strains, growth OD, locus YOR231W, strain MKK1, active compounds read low
In all, about 5,500 compounds went through this assay and about 2,000 (36%) were called active. Roughly 18% stayed inconclusive and do not appear here. The list shows a part of the results.
I'd be grateful if you could share measured normalized growth for these entries.
Please reply with the number alone, leaving off any unit.

Noted for O=C(NOC(=O)c1ccccc1)c1ccccc1 : its normalized growth reads 0.111

Entry CCC(C)C(=O)OC1[C@@H]2CC3=C4CC(=O)O[C@@H](c5ccoc5)[C@]4(C)CCC3[C@@](C)(C2=O)[C@@H](CC(=O)OC)C1(C)C (stereo partly drawn) — recorded normalized growth = 0.973

Lab note: measured normalized growth of O=C(O)C1=CCCNC1 was 1.05

Per the record, Cc1c(C)c(C)c(C(=O)c2ccc(N=Cc3cc(Cl)cc(Cl)c3O)cc2)c(C)c1C has normalized growth of 0.446

Entry CCOC(=O)c1ccc(Cl)c(N=Cc2cc(Cl)cc(Cl)c2O)c1 , normalized growth reported as 0.301

Looking up NCCCNCCCCNCCCN , I found its normalized growth recorded as 0.999

Record summary for NC(Cn1ccc(=O)c(O)c1)C(=O)O (stereo not drawn) : reported normalized growth = 1.02

The molecule O=C(O)c1cccnc1 showed normalized growth equal to 1.01

Lab book: normalized growth of O=C1c2cccc3c(Sc4ccccc4)ccc(c23)C(=O)N1NCCO noted as 0.845

Measured normalized growth of O=[N+]([O-])c1cccc(C2CC(c3ccccc3)=Nc3ccccc3S2)c1 (stereo not drawn) : 0.983

The molecule identified as COc1cc(C/C=C/c2ccccc2)c(OC)cc1O registered its normalized growth at 1.07

According to the records, this molecule CC(=O)c1ccc(Cl)c(N=Cc2cc(Cl)cc(Cl)c2O)c1 displays normalized growth of 0.123

get_value(item= NC(=O)c1cccnc1 , readout=normalized growth) returns 0.975

In plain terms, Nc1ccc(S(=O)(=O)NC(=O)c2ccccc2)cc1 has a documented normalized growth of 0.996

Per the record, COC(=O)c1sccc1NS(=O)(=O)c1cc(Cl)cc(Cl)c1 has normalized growth of 0.986

For reference, reported normalized growth for Nc1ccc(C(=O)O)cc1 stands at 1.01

# normalized growth (molecule: CC(Cc1cccc(C(F)(F)F)c1)NCCOC(=O)c1ccccc1 (stereo not drawn) ) is 0.979

// sample CCCN(CCC)S(=O)(=O)c1ccc(C(=O)O)cc1 , its normalized growth was 0.976

CN(C)CCC(c1ccc(Cl)cc1)c1ccccn1 (stereo not drawn) yielded normalized growth of 0.971

Noted for Clc1ccc(SCc2ccsc2-c2ncns2)cc1 : its normalized growth reads 0.964

According to the records, this molecule CS(=O)(=O)c1ccc([C@@H](O)[C@@H](CO)NC(=O)C(Cl)Cl)cc1 displays normalized growth of 0.967

For this molecule ( OC[C@H]1O[C@@](CO)(O[C@@H]2O[C@H](CO)[C@@H](O)[C@H](O)[C@H]2O)[C@@H](O[C@@H]2O[C@H](CO)[C@@H](O)[C@H](O)[C@H]2O)[C@@H]1O ), measured normalized growth is 1

Record CN(C)[C@@H]1C(=O)C(C(=O)NCN2CCCC2)=C(O)[C@@]2(O)C(=O)C3=C(O)c4c(O)cccc4[C@@](C)(O)[C@H]3C[C@@H]12 , field normalized growth: 1.03

###

MEASUREMENT DESCRIPTION: chemical genetic growth profiling, strain panel (AID 1159580);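 also: tested at 20 µM; growth read once vehicle control cultures reached saturation at 30 °C; 1 = growth at the plate median or of vehicle wells; lower values mean less growth of the strain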
MEASUREMENT SETUP: S. cerevisiae deletion strains, growth OD, locus YJL092W, strain hpr5, active compounds read low
Among all 5,500 compounds or so, about 2,000 (36%) were called active. Roughly 18% stayed inconclusive and do not appear here. The list shows a part of the results.
Field: normalized growth. Provide a value for each of the compounds that follow.
Could you keep your reply to the number by itself?

# normalized growth of CC(CCc1ccccc1)NCC(O)c1ccc(O)c(C(N)=O)c1 (configuration not stated) = 1.01

Per the records, this compound ( C[n+]1ccccc1/C=N/O ) has normalized growth equal to 1.01

Kindly note the recorded normalized growth for CC(=O)N[C@@H](Cc1c[nH]c2ccccc12)C(N)=O , which is 1.02

Measured normalized growth of CCN(CC)CCOC(=O)C1(C2CCCCC2)CCCCC1 : 0.969

Per the records, this compound ( O=C(O)c1cc(O)c2c(c1)[C@@H]([C@H]1c3cc(C(=O)O)cc(O)c3C(=O)c3c(O[C@H]4O[C@H](CO)[C@@H](O)[C@H](O)[C@H]4O)cccc31)c1cccc(O[C@H]3O[C@H](CO)[C@@H](O)[C@H](O)[C@H]3O)c1C2=O ) has normalized growth equal to 1.01

Looking up CC(C)(C)NCC(O)c1ccc(O)c(CO)c1 (configuration not stated) , I see its normalized growth listed as 1.01

Per the records, this compound ( CCC(C)C(=O)OC1[C@@H]2CC3=C4CC(=O)O[C@@H](c5ccoc5)[C@]4(C)CCC3[C@@](C)(C2=O)[C@@H](CC(=O)OC)C1(C)C (some centres not stated) ) has normalized growth equal to 1

###

MEASUREMENT DESCRIPTION: chemical genetic growth profiling, strain panel (AID 1159580);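 also: tested at 20 µM; growth read once vehicle control cultures reached saturation at 30 °C; 1 = growth at the plate median or of vehicle wells; lower values mean less growth of the strain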
MEASUREMENT SETUP: S. cerevisiae deletion strains, growth OD, locus YIL066C, strain RNR3, active compounds read low
About 2,000 (36%) of roughly 5,500 compounds were called active. About 18% were inconclusive and are not listed. This is one part of the list.
PROPERTY: normalized growth
Kindly provide the number alone.

Field normalized growth (entry CC(Cc1cccc(C(F)(F)F)c1)NCCOC(=O)c1ccccc1 (stereo not given) ) reads 0.962

Lookup result for CCN(CC)CCOC(=O)C1(C2CCCCC2)CCCCC1 ; measured normalized growth: 1.01

Kindly note the recorded normalized growth for CC(=O)O[C@H]1CC[C@@]2(C)C(C[C@@H](OC(C)=O)[C@@]3(C)C4=CC(=O)O[C@@H](c5ccoc5)[C@]4(C)CCC23)C1(C)C (stereo not given in full) , which is 1.02

Item: N[C@@H](CCC(=O)N[C@@H](CS)C(=O)NCC(=O)O)C(=O)O | normalized growth: 1.01

// recorded normalized growth for C=C(C)C1CCC(C)(O)C2CC3OC3(C)C2C1 (stereo not given) : 1.01

Entry Cc1cc(=O)[nH]c(=S)[nH]1 ; normalized growth = 1.01

The measured normalized growth associated with CCCc1c(OCCCCc2nn[nH]n2)ccc(C(C)=O)c1O reads 1.02

The recorded normalized growth for entry CC(=O)O[C@@H]1CC2C(C)(C)C(=O)C=C[C@]2(C)C2CC[C@]3(C)C(=CC(=O)O[C@H]3c3ccoc3)[C@@]21C (stereo not given in full) equals 0.956

Summary for this compound, Cc1cc(=O)oc2cc(O)c(O)cc12 : normalized growth is 1

Value of measured normalized growth for the entry CC(=O)O[C@@H]1CC2C(C)(C)[C@H](O)C=C[C@]2(C)C2CC[C@]3(C)C(=CC(=O)O[C@H]3c3ccoc3)[C@@]21C (stereo not given in full) : 1

The recorded normalized growth for OC[C@H]1O[C@@](CO)(O[C@@H]2O[C@H](CO)[C@@H](O)[C@H](O)[C@H]2O)[C@@H](O[C@@H]2O[C@H](CO)[C@@H](O)[C@H](O)[C@H]2O)[C@@H]1O is 1.03

// normalized growth value for CN[C@@H]1[C@H](O)[C@H](NC)[C@H]2O[C@@]3(O)C(=O)C[C@@H](C)O[C@H]3O[C@@H]2[C@H]1O : 1.01

normalized growth in this record for CC(C)CC(NC(=O)OCC1c2ccccc2-c2ccccc21)C(=O)O (stereo not given) : 1.02

Lab book: normalized growth of CCOC(=O)[C@H](CCc1ccccc1)N[C@@H](C)C(=O)N1CCC[C@H]1C(=O)O noted as 1.01

normalized growth in this record for CC1(C)CC2C1CC[C@]1(CBr)CCC3C(CC(=O)O)C(=O)O[C@@]32C1 (stereo not given in full) : 0.98

// OC[C@H]1O[C@@H](O[C@H]2[C@H](O)[C@@H](O)[C@@H](O)O[C@@H]2CO)[C@H](O)[C@@H](O)[C@@H]1O : normalized growth value = 1.02

normalized growth reported for this compound NS(=O)(=O)c1cc2c(cc1Cl)NC(CSCc1ccccc1)=NS2(=O)=O : 1.01

Lab note: measured normalized growth of CC12CCC(O)CC1CCC1C2[C@H](O)CC2(C)C(C3=CC(=O)OC3)CCC12O (stereo not given in full) was 1.04

Form: compound = CC(=O)N[C@@H](Cc1c[nH]c2ccccc12)C(N)=O ; normalized growth = 0.973

// sample N=C(N)N , its normalized growth was 0.994

Recorded values, source PubChem BioAssay AID1159580.
